This collection of values is drawn from ChEMBL document CHEMBL1136138.

# experimental.details: Plasma clearance after peroral administration at 10 mpk in Rhesus
# Type: ADME, organism-based
# condition.details: cercopithecidae, po, 10 mg/kg, read-out: Clp
endpoint: CL/F (mL/min/kg)
Kindly provide the numeric value in mL/min/kg only, without the unit symbol.

Enquiry: Provide CL/F value for the following compound: CC(C)(c1ccc(-c2ccncc2)o1)N1CCN(C[C@@H](O)C[C@@H](Cc2ccccc2)C(=O)N[C@H]2c3ccccc3OC[C@H]2O)[C@H](C(=O)NCC(F)(F)F)C1
Return: 20.4

* * *

# experimental.details: Cmax was determine after peroral administration at 10 mpk in dog
# Type: ADME, organism-based, Canis lupus familiaris
# Parameters: dose 10 mpk, route oral
# condition.details: in vivo, po, 10 mg/kg
endpoint: Cmax (nM)
Kindly provide the numeric value in nM only, without the unit symbol.

Enquiry: Provide Cmax value for the following molecule: O=C(N[C@H]1c2ccccc2OC[C@H]1O)[C@H](Cc1ccccc1)C[C@H](O)CN1CCN(Cc2ccc(-c3ccccn3)o2)C[C@H]1C(=O)NCC(F)(F)F
Return: 900

* * *

# experimental.details: In vitro intrinsic clearance in human liver microsome
# Format: ADME
# condition.details: liver microsomes
Quick list: CLint scaled per entry.

Examples with answers:
O=C(N[C@H]1c2ccccc2OC[C@H]1O)[C@H](Cc1ccccc1)C[C@H](O)CN1CCN(Cc2ccc(-c3ccncc3)o2)C[C@H]1C(=O)NCC(F)(F)F : 133 mL/min/kg
O=C(N[C@H]1c2ccccc2OC[C@H]1O)[C@H](Cc1ccccc1)C[C@H](O)CN1CCN(Cc2ccc(-c3cccnc3)o2)C[C@H]1C(=O)NCC(F)(F)F : 233 mL/min/kg
CC(C)(c1ccc(-c2ccncc2)o1)N1CCN(C[C@@H](O)C[C@@H](Cc2ccccc2)C(=O)N[C@H]2c3ccccc3OC[C@H]2O)[C@H](C(=O)NCC(F)(F)F)C1 : 19 mL/min/kg

Now for another entry.
Enquiry: Provide CLint scaled value for the following compound: O=C(N[C@H]1c2ccccc2OC[C@H]1O)[C@H](Cc1ccccc1)C[C@H](O)CN1CCN(Cc2ccc(-c3ccccn3)o2)C[C@H]1C(=O)NCC(F)(F)F
Return: 655 mL/min/kg

* * *

# experimental.details: Half life period was determine after peroral administration at 10 mpk in dog
# Type: ADME, organism-based, Canis lupus familiaris
# condition.details: in vivo, po, 10 mg/kg
endpoint: half-life (min)
Kindly provide the numeric value in min only, without the unit symbol.

O=C(N[C@H]1c2ccccc2OC[C@H]1O)[C@H](Cc1ccccc1)C[C@H](O)CN1CCN(Cc2ccc(-c3ccccn3)o2)C[C@H]1C(=O)NCC(F)(F)F : 50

Enquiry: Provide half-life value for the following molecule: CC(C)(C)NC(=O)[C@@H]1CN(Cc2cccnc2)CCN1C[C@@H](O)C[C@@H](Cc1ccccc1)C(=O)N[C@H]1c2ccccc2C[C@H]1O.O
Return: 28

* * *

# experimental.details: Area under curve was determine after peroral administration at 5 mpk in dog
# Format: ADME, organism-based, Canis lupus familiaris
# condition.details: in vivo, po, 5 mg/kg
endpoint: AUC (µM·h)
Kindly provide the numeric value in µM·h only, without the unit symbol.

Enquiry: Provide AUC value for the following compound: O=C(N[C@H]1c2ccccc2OC[C@H]1O)[C@H](Cc1ccccc1)C[C@H](O)CN1CCN(Cc2ccc(-c3ccncc3)o2)C[C@H]1C(=O)NCC(F)(F)F
Return: 2.6
